Test system: MV-4-11 (carrying MLL-AF4)
Test: Inhibition of proliferation of human tumor cells (Alamar Blue, 7 days), MV-4-11
Format: cell-based
Settings: Homo sapiens, MV4-11, 168 h, MV-4-11 cells (carrying MLL-AF4), method calls the value GI50
Method: Experimental Example 2: Evaluation of Inhibitory Activity of Compounds Against Proliferation of Human Tumor Cells […] Seven days after compound addition (on Day 7), an Alamar Blue assay reagent (MCE, HY-111391 / CS-0040317) was added to measure the fluorescence intensity in each well. Wells containing the cells in the growth medium supplemented with 0.1% DMSO (Day 7) served as high-read control wells. […]
Measured property: IC50 (nM)

chemical_smiles=Cc1cncc2c(-c3ccc(F)cc3C(=O)N3CCOC[C@H]3C)cc(CC3CN(CC4CCN(C(=O)C5CC5)CC4)C3)n12 measured_property=IC50 units_of_measure=nM observed_value=4.6
chemical_smiles=COCC1CN(CCC[C@H](C(C)C)N2CC(c3cc(-c4ccc(F)cc4C(=O)N4CCOC[C@H]4C)c4cnn(C)c4c3)C2)C1 measured_property=IC50 units_of_measure=nM observed_value=7.9
chemical_smiles=CCS(=O)(=O)N[C@H]1CC[C@H](CN2CC(c3cc(-c4ccc(F)cc4C(=O)N4CCC[C@H]4C)c4c(F)nc(C)n4c3)C2)CC1 measured_property=IC50 units_of_measure=nM observed_value=15
chemical_smiles=Cc1nc(F)c2c(-c3ccc(F)cc3C(=O)N3CCOC[C@H]3C)cc(C3CN(CC4CCN(C(=O)CC(C)C)CC4)C3)cn12 measured_property=IC50 units_of_measure=nM observed_value=12
chemical_smiles=CCN(C(=O)c1cc(F)ccc1-c1cc([C@H]2CCN(C[C@H]3CC[C@H](NS(=O)(=O)CC)CC3)C2)cn2cncc12)C(C)C measured_property=IC50 units_of_measure=nM observed_value=79
chemical_smiles=Cc1nc(F)c2c(-c3ccc(F)cc3C(=O)N3CCOC[C@H]3C)cc(C3CN(CC4CCN(C(=O)C5(O)CC5)CC4)C3)cn12 measured_property=IC50 units_of_measure=nM observed_value=34

----------
Target: Menin-MLL (Homo sapiens, UniProt O00255)
Construct: His-Menin (M1-L615 end); purchased BIORTUS BP9210
Sequence (O00255 1-615 isoform O00255-1): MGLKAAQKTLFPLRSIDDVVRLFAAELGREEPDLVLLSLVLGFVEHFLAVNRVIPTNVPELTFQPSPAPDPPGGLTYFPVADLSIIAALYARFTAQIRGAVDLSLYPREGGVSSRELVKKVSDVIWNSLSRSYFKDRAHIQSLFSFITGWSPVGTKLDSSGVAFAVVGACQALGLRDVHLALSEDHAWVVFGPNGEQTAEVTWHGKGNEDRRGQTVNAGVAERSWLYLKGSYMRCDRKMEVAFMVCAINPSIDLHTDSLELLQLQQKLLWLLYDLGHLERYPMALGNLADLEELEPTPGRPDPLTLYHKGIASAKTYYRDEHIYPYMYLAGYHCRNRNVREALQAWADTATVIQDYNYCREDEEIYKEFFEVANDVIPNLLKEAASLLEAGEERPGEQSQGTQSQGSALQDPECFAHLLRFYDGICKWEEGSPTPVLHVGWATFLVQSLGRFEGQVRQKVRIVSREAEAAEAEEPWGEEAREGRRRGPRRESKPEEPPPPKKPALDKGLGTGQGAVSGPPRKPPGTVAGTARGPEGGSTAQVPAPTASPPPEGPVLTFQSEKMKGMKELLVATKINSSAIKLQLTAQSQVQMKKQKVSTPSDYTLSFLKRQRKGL
Assay: Inhibitory activity against Menin-MLL binding (fluorescence polarization)
Conditions: fluorescence polarization; 150 nM His-Menin, 15 nM FITC-MLL; 25°C for 60 min; read-out: Menin-MLL IC50
pIC50: −log10 of the molar value.
Measured property: pIC50

molecule="COCC(C1CCOCC1)N1CC(c2cc(-c3ccc(F)cc3C(=O)N3CCOC[C@H]3C)c3cnc(C)n3c2)C1 (stereo partly shown)" target_or_test_system="Menin-MLL (Homo sapiens, UniProt O00255)" observed_value=6.72
molecule=CCN(C(=O)c1cc(F)ccc1-c1cc(C2CN([C@H](CCCN3CCN(CCO)CC3)C(C)C)C2)cc2c1cnn2C)C(C)C target_or_test_system="Menin-MLL (Homo sapiens, UniProt O00255)" observed_value=8.43
molecule=CCN(C(=O)c1cc(F)ccc1-c1cc(C2CN([C@H](CCCN3CCC[C@@H](O)C3)C(C)C)C2)cn2c(C)ncc12)C(C)C target_or_test_system="Menin-MLL (Homo sapiens, UniProt O00255)" observed_value=8.70
molecule=COCCN(C)CCC[C@H](C(C)C)N1CC(c2cc(-c3ccc(F)cc3C(=O)N3[C@H](C)COC[C@H]3C)c3cnn(C)c3c2)C1 target_or_test_system="Menin-MLL (Homo sapiens, UniProt O00255)" observed_value=8.28
molecule=CCN(C(=O)c1cc(F)ccc1-c1cc(C2CN([C@H](CN3CCN(CCOC)CC3)C(C)C)C2)cc2c1cnn2C)C(C)C target_or_test_system="Menin-MLL (Homo sapiens, UniProt O00255)" observed_value=7.54
molecule=CCN(C(=O)c1cc(F)ccc1-c1cc(C2CN([C@@H](C)C3CCN(C(C)=O)CC3)C2)cn2c(C)ncc12)C(C)C target_or_test_system="Menin-MLL (Homo sapiens, UniProt O00255)" observed_value=8.05
molecule=CCN(C(=O)c1cc(F)ccc1-c1cc(C2CN([C@@H](CCCN(C)CCOC)C(C)C)C2)cn2c(C)nc(F)c12)C(C)C target_or_test_system="Menin-MLL (Homo sapiens, UniProt O00255)" observed_value=7.84
molecule="Cc1ncc2c(-c3ccc(F)cc3C(=O)N(CC(F)F)C(C)C)cc(N3CCN(C(=O)[C@@H]4CCC(c5cccc(F)c5)N4)CC3)cn12 (stereo partly shown)" target_or_test_system="Menin-MLL (Homo sapiens, UniProt O00255)" observed_value=6.79
molecule=CC(=O)N1CCN(CCC[C@H](C(C)C)N2CC(c3cc(-c4ccc(F)cc4C(=O)N4CCOC[C@H]4C)c4c(F)nc(C)n4c3)C2)CC1 target_or_test_system="Menin-MLL (Homo sapiens, UniProt O00255)" observed_value=7.89
molecule=CCS(=O)(=O)N[C@H]1CC[C@H](CCN2CC(c3cc(-c4ccc(F)cc4C(=O)N4CCOC[C@H]4C)c4cnn(C)c4c3)C2)CC1 target_or_test_system="Menin-MLL (Homo sapiens, UniProt O00255)" observed_value=7.21
molecule=CCN(C(=O)c1cc(F)ccc1-c1cc(C2CN([C@H](CN3CCN(C)CC3)C(C)C)C2)cc2c1cnn2C)C(C)C target_or_test_system="Menin-MLL (Homo sapiens, UniProt O00255)" observed_value=8.00
molecule="CCS(=O)(=O)N[C@@H]1CC[C@@H](CN2CCC(c3cc(-c4ccc(F)cc4C(=O)N(CC(F)F)C(C)C)c4cnc(C)n4c3)C2)OC1 (stereo partly shown)" target_or_test_system="Menin-MLL (Homo sapiens, UniProt O00255)" observed_value=7.42
molecule=CCN(C(=O)c1cc(F)ccc1-c1cc(C2CN([C@H](CCCN3CCN(C4(C#N)COC4)CC3)C(C)C)C2)cn2c(C)ncc12)C(C)C target_or_test_system="Menin-MLL (Homo sapiens, UniProt O00255)" observed_value=8.66
molecule=Cc1nc(F)c2c(-c3ccc(F)cc3C(=O)N3CCOC[C@H]3C)cc(C3CN(C[C@H]4CC[C@H](c5ncno5)CC4)C3)cn12 target_or_test_system="Menin-MLL (Homo sapiens, UniProt O00255)" observed_value=6.95
molecule=CCN1CCN(CCC[C@H](C(C)C)N2CC(c3cc(-c4ccc(F)cc4C(=O)N4CCOC[C@H]4C)c4cnn(C)c4c3)C2)CC1 target_or_test_system="Menin-MLL (Homo sapiens, UniProt O00255)" observed_value=8.22
molecule=CCN(C(=O)c1cc(F)ccc1-c1cc(C2CN([C@H](CN3CCN(CCF)CC3)C(C)C)C2)cc2c1cnn2C)C(C)C target_or_test_system="Menin-MLL (Homo sapiens, UniProt O00255)" observed_value=7.11
molecule=CCN(C(=O)c1cc(F)ccc1-c1cc(C2CN([C@@H](CCCN3CCN(CCO)CC3)C(C)C)C2)cc2c1cnn2C)C(C)C target_or_test_system="Menin-MLL (Homo sapiens, UniProt O00255)" observed_value=6.66
molecule="COCCN(C)C1CC(C(C(C)C)N2CC(c3cc(-c4ccc(F)cc4C(=O)N4CCOC[C@H]4C)c4cnn(C)c4c3)C2)C1 (stereo partly shown)" target_or_test_system="Menin-MLL (Homo sapiens, UniProt O00255)" observed_value=7.39
molecule=CCC(=O)N1CCN(CCC[C@H](C(C)C)N2CC(c3cc(-c4ccc(F)cc4C(=O)N4CCOC[C@H]4C)c4c(F)nc(C)n4c3)C2)CC1 target_or_test_system="Menin-MLL (Homo sapiens, UniProt O00255)" observed_value=8.10
molecule=CCN(C(=O)c1cc(F)ccc1-c1cc(N2CCN(C[C@H]3CC[C@H](NS(=O)(=O)CC)CC3)CC2)cn2c(C)ncc12)C(C)C target_or_test_system="Menin-MLL (Homo sapiens, UniProt O00255)" observed_value=6.78
molecule=Cc1nc(F)c2c(-c3ccc(F)cc3C(=O)N3[C@H](C)COC[C@H]3C)cc(C3CN([C@H](C)C4CCOCC4)C3)cn12 target_or_test_system="Menin-MLL (Homo sapiens, UniProt O00255)" observed_value=7.53
molecule=CC(=O)N1CCC(CN2CC(c3cc(-c4ccc(F)cc4C(=O)N4CCC[C@H]4C)c4c(F)nc(C)n4c3)C2)CC1 target_or_test_system="Menin-MLL (Homo sapiens, UniProt O00255)" observed_value=7.48
molecule=CCN(C(=O)c1cc(F)ccc1-c1cc(C2CN([C@H](CCCN3CCC(NC(C)=O)CC3)C(C)C)C2)cc2c1cnn2C)C(C)C target_or_test_system="Menin-MLL (Homo sapiens, UniProt O00255)" observed_value=8.80
molecule="CCN(C(=O)c1cc(F)ccc1-c1cc(C2=CCC(NCc3ccc(-c4cc(OC)c(OC)nn4)cc3)CC2)n2ccncc12)C(C)C (stereo not shown)" target_or_test_system="Menin-MLL (Homo sapiens, UniProt O00255)" observed_value=7.76
molecule=CCS(=O)(=O)N[C@@H]1CC[C@@H](CN2CC(c3cc(-c4ccc(F)cc4C(=O)N(CC(F)F)C(C)C)c4c(F)nc(C)n4c3)C2)OC1 target_or_test_system="Menin-MLL (Homo sapiens, UniProt O00255)" observed_value=7.81
